B1: MeV phosphoprotein (P), wild type [measles virus (strain IC-B)] / MeV L_(1708), C-terminally truncated large polymerase protein lacking the methyltransferase domain [measles virus (strain IC-B)] (parent complex)
chain 1: MAEEQARHVKNGLECIRALKAEPIGSLAVEEAMAAWSEISDNPGQDRATCKEEEAGSSGLSKPCLSAIGSTEGGAPRIRGQGSGESDDDAETLGIPSRNLQASSTGLQCYHVYDHSGEAVKGIQDADSIMVQSGLDGDSTLSGGDDESENSDVDIGEPDTEGYAITDRGSAPISMGFRASDVETAEGGEIHELLKLQSRGNNFPKLGKTLNVPPPPNPSRASTSETPIKKGTDARLASFGTEIASLLTGGATQCARKSPSEPSGPGAPAGNVPECVSNAALIQEWTPESGTTISPRSQNNEEGGDYYDDELFSDVQDIKTALAKIHEDNQKIISKLESLLLLKGEVESIKKQINRQNISISTLEGHLSSIMIAIPGLGKDPNDPTADVELNPDLKPIIGRDSGRALAEVLKKPVASRQLQGMTNGRTSSRGQLLKEFQLKPIGKKVSSAVGFVPDTGPASRSVIRSIIKSSRLEEDRKRYLMTLLDDIKGANDLAKFHQMLMKIIMK
chain 2: MDSLSVNQILYPEVHLDSPIVTNKIVAILEYARVPHAYSLEDPTLCQNIKHRLKNGFSNQMIINNVEVGNVIKSKLRSYPAHSHIPYPNCNQDLFNIEDKESTRKIRELLKKGNSLYSKVSDKVFQCLRDTNSRLGLGSELREDIKEKIINLGVYMHSSQWFEPFLFWFTVKTEMRSVIKSQTHTCHRRRHTPVFFTGSSVELLISRDLVAIISKESQHVYYLTFELVLMYCDVIEGRLMTETAMTIDARYAELLGRVRYMWKLIDGFFPALGNPTYQIVAMLEPLSLAYLQLRDITVELRGAFLNHCFTEIHDVLDQNGFSDEGTYHELIEALDYIFITDDIHLTGEIFSFFRSFGHPRLEAVTAAENVRKYMNQPKVIVYETLMKGHAIFCGIIINGYRDRHGGSWPPLTLPLHAADTIRNAQASGEGLTHEQCVDNWKSFAGVRFGCFMPLSLDSDLTMYLKDKALAALQREWDSVYPKEFLRYDPPKGTGSRRLVDVFLNDSSFDPYDMIMYVVSGAYLHDPEFNLSYSLKEKEIKETGRLFAKMTYKMRACQVIAENLISNGIGKYFKDNGMAKDEHDLTKALHTLAVSGVPKDLKESHRGGPVLKTYSRSPVHTSTRNVKAEKGFVGFPHVIRQNQDTDHPENIETYETVSAFITTDLKKYCLNWRYETISLFAQRLNEIYGLPSFFQWLHKRLETSVLYVSDPHCPPDLDAHVPLCKVPNDQIFIKYPMGGIEGYCQKLWTISTIPYLYLAAYESGVRIASLVQGDNQTIAVTKRVPSTWPYNLKKREAARVTRDYFVILRQRLHDIGHHLKANETIVSSHFFVYSKGIYYDGLLVSQSLKSIARCVFWSETIVDETRAACSNIATTMAKSIERGYDRYLAYSLNVLKVIQQILISLGFTINSTMTRDVVIPLLTNNDLLIRMALLPAPIGGMNYLNMSRLFVRNIGDPVTSSIADLKRMILASLMPEETLHQVMTQQPGDSSFLDWASDPYSANLVCVQSITRLLKNITARFVLIHSPNPMLKGLFHDDSKEEDERLAAFLMDRHIIVPRAAHEILDHSVTGARESIAGMLDTTKGLIRASMRKGGLTSRVITRLSNYDYEQFRAGMVLLTGRKRNVLIDKESCSVQLARALRSHMWARLARGRPIYGLEVPDVLESMRGHLIRRHETCVICECGSVNYGWFFVPSGCQLDDIDKETSSLRVPYIGSTTDERTDMKLAFVRAPSRSLRSAVRIATVYSWAYGDDDSSWNEAWLLARQRANVSLEELRVITPISTSTNLAHRLRDRSTQVKYSGTSLVRVARYTTISNDNLSFVISDKKVDTNFIYQQGMLLGLGVLETLFRLEKDTGSSNTVLHLHVETDCCVIPMIDHPRIPSSRKLELRAELCTNPLIYDNAPLIDRDATRLYTQSHRRHLVEFVTWSTPQLYHILAKSTALSMIDLVTKFEKDHMNEISALIGDDDINSFITEFLLIEPRLFTIYLGQCAAINWAFDVHYHRPSGKYQMGELLSSFLSRMSKGVFKVLVNALSHPKIYKKFWHCGIIEPIHGPSLDAQNLHTTVCNMVYTCYMTYLDLLLNEELEEFTFLLCESDEDVVPDRFDNIQAKHLCVLADLYCQPGTCPPIRGLRPVEKCAVLTDHIKAEARLSPAGSSWNINPIIVDHYSCSLTYLRRGSIKQIRLRVDPGFIFDALAEVNVSQPKVGSN

Variants of: B1
Assay: co-immunoprecipitation (IP anti-HA of P, immunoblot of L anti-FLAG, densitometry); lysates of transiently transfected cells, lysed 24 hours after transfection; IP at 4°C; parent: 100; read off a plot
measured parameter: percent of parent

Record excerpt, results attached:
chain 1 D486R : ~130 % of wild type P
chain 1 K469E : ~75 % of wild type P
chain 1 F497D : ~120 % of wild type P
chain 1 S462R : ~75 % of wild type P

Consider chain 1 R479E . Its measured percent of parent is ~82 % of wild type P

Consider chain 1 R465E . Its measured percent of parent is ~62 % of wild type P

Consider chain 1 D493K . Its measured percent of parent is ~150 % of wild type P

Consider chain 1 T483R . Its measured percent of parent is ~85 % of wild type P
